test: Apparent permeability from apical to basolateral side in human Caco2 cells at 10 uM after 60 mins; format: ADME, cell-based; conditions: Caco-2
Measurement label: Papp A→B at 1 h, 10 µM (×10⁻⁶ cm/s)

A = CNC(=O)[C@@H](NC(=O)[C@@](O)(CCCN(Cc1ccc(-c2ccccc2)cc1)NC(=O)[C@@H](NC(=O)OC)C(C)(C)C)Cc1ccccc1)C(C)(C)C
B = CNC(=O)[C@@H](NC(=O)[C@@](O)(CCCN(Cc1ccc(Br)cc1)NC(=O)[C@@H](NC(=O)OC)C(C)(C)C)Cc1ccccc1)C(C)(C)C
C = CNC(=O)[C@@H](NC(=O)[C@@](O)(CCCN(Cc1ccc(-c2ccncc2)cc1)NC(=O)[C@@H](NC(=O)OC)C(C)(C)C)Cc1ccccc1)C(C)(C)C
# rank above entries by Papp A→B at 1 h, 10 µM (max first, min last) // list labels; follow requested order
A, B, C

###

molecular target: Protease (Human immunodeficiency virus 1)
Sequence (Q9YQ12 whole entry): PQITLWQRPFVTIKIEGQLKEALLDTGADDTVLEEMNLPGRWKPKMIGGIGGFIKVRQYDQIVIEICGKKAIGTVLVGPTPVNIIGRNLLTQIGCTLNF
pKi: −log10 of the molar value.
Measurement label: pKi

> print(dat)
                                        mol  measurement.label  number
1  CNC(=O)[C@@H](NC(=O)[C@@](O)(CCCN(Cc1ccc(-c2ccccn2)cc1)NC(=O)[C@@H](NC(=O)OC)C(C)(C)C)Cc1ccccc1)C(C)(C)C                pKi    8.20
2  CNC(=O)[C@@H](NC(=O)[C@@](O)(CCCN(Cc1ccc(Br)cc1)NC(=O)[C@@H](NC(=O)OC)C(C)(C)C)Cc1ccccc1)C(C)(C)C                pKi    8.21
3  CNC(=O)[C@@H](NC(=O)[C@@](O)(CCCN(Cc1ccc(C#Cc2ccccn2)cc1)NC(=O)[C@@H](NC(=O)OC)C(C)(C)C)Cc1ccccc1)C(C)(C)C                pKi    8.15

Data credit: ChEMBL document CHEMBL3217614
